protocol_summary: yeast display, Sf9 membrane polyspecificity reagent, FACS + sequencing; frameworks hold sequencing errors
measure_name: polyreactivity (PSR sort gate)

Example entries and their recorded answers appear below.
monomer_sequence	measure_name	test_value
QVHLVESGGGLVQAGGSLRLSCAASGFTFNGYAMGWYRQAPGKESEMVAGITRRGGITYYADSVKGRFTISRYNAKNTVYLQMNSLKPEETAVYYCARDYIGHALIHHASLYYYWGQGTQVTVSS	polyreactivity (PSR sort gate)	high polyreactivity
QVQHVESGGGLVQAGRSLRLSCAATGYIFWKNAMGWYRQAPGKERELVAGITIRGGRTYYADSVKGRFTISRDNAKNTVYLQMNSLKPEDTAVYYCAAGTGVSRYRYVYWGQGTQVTVSS	polyreactivity (PSR sort gate)	high polyreactivity
QFQLVESGGGLVQAGGSLRLSCAASGSTFLLYAMGWYRQAPGKEREFVASISGDGSSNYADSVKGRFTISRDNAKITVYLQMNSLKPEDTAVYYCAAVLLDPDSTLESGGNFDYWGQGTQVTVSS	polyreactivity (PSR sort gate)	low polyreactivity
QVQLVESGGGLVQAGGSLRLSCAASGSTFGTNAMGWYRQAPGKERELVAAITYSGGRTYYADSVKGRFTISRDNAKNTVYLQMNSLKPEDTAVYYCAATFGFFYYQYEYWGLGTQVTVSS	polyreactivity (PSR sort gate)	low polyreactivity
QVQLVESGGGLVQAGGSLRISCAASGFIFFPYTRGCSRQAPGKLMELVAAITNGGSTSYADSVKGRFTISRDNAKKTGYLQMNSLKPEDTAVYSCAAVLGRNLLHTYYYWGQGTQVTGSS	polyreactivity (PSR sort gate)	low polyreactivity

Endpoint output: polyreactivity (PSR sort gate) of QVQLVESGGGLVQAGGSLRLSCAASGSIFSINAMGWYRQAPGKERELVAVISWIGGNTYYADSVKGRFTISRDNAKNTVYLKMNSLKPEDTAVYYCAVATGPVSYRRYYCGQGTQVTVSS . Value?
high polyreactivity

Cool, now QVQLVESGGGLVQAGGSLRLSCAASGLIFATYAMRWYRQAPGKERELVADITTTGSTYYADSVKGRFTISRDNAKNTVYLQMNSLKPEDTAVYYCAAYGRWLTWYDFDYWGQGTQVTVSS
high polyreactivity

Cool, now QVQLVESGGGLVQAGGSLRLSCAASGSTFLRYAMGWYRQAPGKERELVAAITASGGSTYYADSVKGRFTISRDNAKNTVYLEMNSLKPEDTAVYYCAADGRYIGKNSHDLWIYGYYYWGQGTQVTVSS
low polyreactivity
